Ref: patent US20200157174A1

# Test System: T1, recombinant cynomolgus NKG2D-Fc (cynomolgus; human, UniProt P61252 73-216)
# T1 construct: extracellular domain; also called cynomolgus NKG2D-Fc fusion protein; not shown: human IgG1 Fc domain
# T1 sequence (looked up): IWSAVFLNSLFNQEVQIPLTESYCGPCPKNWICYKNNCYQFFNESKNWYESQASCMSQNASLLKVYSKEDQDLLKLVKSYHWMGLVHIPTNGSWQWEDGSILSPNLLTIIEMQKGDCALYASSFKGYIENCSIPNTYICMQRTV
# Experiment Notes: ELISA on coated NKG2D-Fc;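 further: titrated NKG2D-binding domains on plate-bound human, mouse or cynomolgus NKG2D ectodomain–human IgG1 Fc fusions, detected with HRP anti-human kappa secondary and TMB, absorbance at 450 nm corrected at 540 nm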
Quantity Name: binding result

- Binder: "ADI-27741 (antibody, V domains shown) VH: QVQLQQWGAGLLKPSETLSLTCAVYGGSFSGYYWSWIRQPPGKGLEWIGEIDHSGSTNYNPSLKSRVTISVDTSKNQFSLKLSSVTAADTAVYYCARARGPWSFDPWGQGTLVTVSS VL: DIQMTQSPSTLSASVGDRVTITCRASQSIGSWLAWYQQKPGKAPKLLIYKASSLESGVPSRFSGSGSGTEFTLTISSLQPDDFATYYCQQSNSYYTFGGGTKVEIK"
  Measurement: "binds"
- Binder: "ADI-29407 (antibody, V domains shown) VH: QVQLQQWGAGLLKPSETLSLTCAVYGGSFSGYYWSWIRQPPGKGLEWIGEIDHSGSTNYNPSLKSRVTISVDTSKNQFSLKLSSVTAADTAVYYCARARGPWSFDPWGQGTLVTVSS VL: DIQMTQSPSTLSASVGDRVTITCRASQSISSWLAWYQQKPGKAPKLLIYKASSLESGVPSRFSGSGSGTEFTLTISSLQPDDFATYYCQQYQSFPTFGGGTKVEIK"
  Measurement: "binds"
- Binder: "ADI-29405 (antibody, V domains shown) VH: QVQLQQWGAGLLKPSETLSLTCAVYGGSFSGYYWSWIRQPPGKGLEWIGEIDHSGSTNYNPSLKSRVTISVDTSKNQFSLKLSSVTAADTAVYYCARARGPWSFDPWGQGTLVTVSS VL: DIQMTQSPSTLSASVGDRVTITCRASQSISSWLAWYQQKPGKAPKLLIYKASSLESGVPSRFSGSGSGTEFTLTISSLQPDDFATYYCQQYGSFPTFGGGTKVEIK"
  Measurement: "binds"
